Origin of measurements: ChEMBL document CHEMBL3988442

STUDY SYSTEM: AMP-activated protein kinase, AMPK (Homo sapiens) (UniProt P54646+O43741+P54619+Q9UGJ0+Q9Y478+Q13131+Q9UGI9)
PROCEDURE TEXT: AMP-dependent Kinase enzyme assay. An in vitro enzyme assay that detects ADP turnover that is directly proportional to AMPK activity. This uses naive AMPK that is activated during the assay with MK-8722
Type: functional
Parameters: scale not given: direction of the effect not stated beside the values
SETTINGS: 30 µM
RECORDED METRIC: Percent Effect
Please provide the amount together with its unit, number first.

Here is how some compounds turned out for Percent Effect.
- COMPOUND: "N#Cc1ccnc(N2CCN(CC(O)c3cccc(F)c3)CC2)c1 (stereo not drawn)"
  Percent Effect: "0.651%"
- COMPOUND: "CN(C)C(=O)CC1CC2(CCN(c3ncccn3)CC2)c2ccccc21 (stereo not drawn)"
  Percent Effect: "5.36%"
- COMPOUND: "CN(C)C(=O)NCc1cc2n(n1)CCN(C[C@H]1[C@@H]3CNC[C@@H]31)C2"
  Percent Effect: "-5.71%"
- COMPOUND: "O=C(c1ccco1)N1CCCC(c2cc(C(F)F)n3ncnc3n2)C1 (stereo not drawn)"
  Percent Effect: "9.33%"
- COMPOUND: "Cc1ccc(CN2CC(C(=O)N3CCCC3)C3(CCOCC3)C2)s1 (stereo not drawn)"
  Percent Effect: "0.717%"
- COMPOUND: "COc1cc(CCC(=O)NCC2CCCN2C)ccc1OCC(F)(F)F (stereo not drawn)"
  Percent Effect: "-14%"
- COMPOUND: "COCC(O)CN(C)C(=O)NC1CCN(Cc2ccccn2)CC1 (stereo not drawn)"
  Percent Effect: "-7.26%"
- COMPOUND: "CNC(=O)c1nc2c(s1)CCN(C(=O)Cc1ccc(OC)cc1)CC2"
  Percent Effect: "1.22%"

Then there is this compound:
For reference, reported Percent Effect for Cc1noc([C@H]2C[C@@H]3CCN(C(=O)N(C)C)C[C@H]3O2)n1 stands at 6.92%
